Consider the following molecules; for each one, report its pEC50.
tested on: recombinant NL4-3 virus (nef section replaced with Renilla luciferase gene) in MT-2 cells; test: HIV cell culture assay (antiviral activity, luciferase readout); type: cell-based; settings: Renilla, NL43, MT-2 cells infected for 4-5 days with recombinant NL4-3 Renilla luciferase virus, serial dilutions of compound
# pEC50 is unitless: minus log10 of the molar concentration; print number only

## Task Give the observed pEC50 of COc1ccccc1-c1ccc2c(=O)n(-c3ccc(S(=O)(=O)N4CCOCC4)cc3)c([C@H](Cc3cc(F)cc(F)c3)NC(=O)Cn3ccc(C4CC4)n3)nc2c1 for recombinant NL4-3 virus (nef section replaced with Renilla luciferase gene) in MT-2 cells.
## Result 7.18

## Task Answer with pEC50 of Cc1nccnc1-c1ccc2c(=O)n(-c3ccc(Cl)c4c(NS(C)(=O)=O)nn(CC(F)(F)F)c34)c([C@H](Cc3cc(F)cc(F)c3)NC(=O)Cn3nc(C(F)F)c4c3C(F)(F)[C@@H]3C[C@H]43)nc2c1 measured for recombinant NL4-3 virus (nef section replaced with Renilla luciferase gene) in MT-2 cells.
## Result 10.30

## Task Supply pEC50 measured with recombinant NL4-3 virus (nef section replaced with Renilla luciferase gene) in MT-2 cells for Cn1nc(NS(C)(=O)=O)c2c(Cl)ccc(-n3c([C@H](Cc4cc(F)cc(F)c4)NC(=O)Cn4nc(C(F)F)c5c4C(F)(F)[C@@H]4C[C@H]54)nc4cc(-c5ccc(F)c(CO)c5)ccc4c3=O)c21 (atropisomer, axis not shown; (aR)) .
## Result 9.41
